- SETUP CONDITIONS: in n-propanol, 328.15 K
PARAMETER: solubility (mole fraction)
The answer should be a number; do not append a unit.

Request: Can you look up the measured solubility (mole fraction) of "NC(=O)c1nc(F)cnc1O" for me?
Result: 0.00349

----------
- SETUP CONDITIONS: in n-butyl acetate, 293.15 K
PARAMETER: solubility (mole fraction)
Respond using a number only.

Request: Which solubility (mole fraction) reading was recorded for the compound "NC(=O)c1nc(F)cnc1O" ?
Result: 0.00502

----------
- SETUP CONDITIONS: in acetonitrile, 318.15 K
PARAMETER: solubility (mole fraction)
Give your answer as a number; write no unit.

Request: Quick check: solubility (mole fraction) of "NC(=O)c1nc(F)cnc1O" ?
Result: 0.00242
